Entry source: PubChem BioAssay (NCI)

- Test system: MCF7 breast
- test_method_notes: NCI tumour cell line growth inhibition, 48 h
Could you please report measured TGI for the items listed next?

Record excerpt, results attached:
COc1cccc(-c2cccc(SC)n2)n1 = > 100 µM
COc1cc(-c2nn(C(=O)NS(=O)(=O)c3ccc(C)cc3)cc2-c2ccncc2)ccc1Cl = 26.2 µM

Provide the reported TGI of each entry below, same order.
1. c1ccc2c[n+](CCCCCCCCCC[n+]3ccc4ccccc4c3)ccc2c1
2. COc1ccc2c(c1OC)-c1c(c3ccc([N+](=O)[O-])cc3c(=O)n1CCCN=[N+]=[N-])C2=O
3. COc1cc(/C=C2\CC3C4CC=C5C[C@@H](N6CCCC6)CC[C@]5(C)C4CC[C@]3(C)[C@H]2OC(C)=O)ccc1OCCN1CCCCC1 (stereo not given in full)
4. O=c1n(-c2ccccc2)c(=O)n2n1C1CCC2CC1
5. Cc1ncc(CO)c(CN)c1O

["> 10 µM", "> 100 µM", "> 100 µM", "> 100 µM", "> 100 µM"]

Provide the reported TGI of each entry below, same order.
1. O=C1C(Cl)=C(Nc2cccc(C(F)(F)F)c2)C(=O)N1Cc1ccccc1Cl
2. CC1=CCC[C@@](C)(O)[C@@H]2C[C@H]3C(CSc4ccccc4)C(=O)O[C@H]3[C@@H](O2)[C@H](C)CCC1 (stereo not given in full)
3. O=C1NC(=O)C2(CCC(O)C2)c2cc[n+]([O-])cc21 (stereo not given)

["> 31.8 µM", "29.4 µM", "> 100 µM"]

----------
- Tested on: CCRF-CEM leukemia
- test_method_notes: NCI tumour cell line growth inhibition, 48 h
metric_name: GI50

Record excerpt, results attached:
COc1cc(C2CC(c3ccc4c(c3)OCO4)=NN2C(C)=O)cc(OC)c1OC (stereo not given) = 0.79 µM
NC(N)=N/N=C/c1cccc(Cl)c1Cl = 7.26 µM
O=C(O)c1ccc(-c2ccc(C(=O)O)cc2I)c(I)c1 = > 100 µM

Provide the reported GI50 of each entry below, same order.
1. O=C(Nc1cccc(C(F)(F)F)c1)c1cccc(NC2=C(Cl)C(=O)N(Cc3ccccc3)C2=O)c1
2. BrC(Br)(Br)c1cnc2ccccc2n1

["1.87 µM", "0.49 µM"]

----------
Could you please report measured TGI for the items listed next?
- System: SF-268 CNS
- test_method_notes: NCI tumour cell line growth inhibition, 48 h

Record excerpt, results attached:
CCCCCC(=O)OCC(=O)O[C@@H]1C[C@]2(C(C)C)O[C@@]1(C)[C@@H]1CC[C@@H](C)[C@H]1[C@@H]2OC(=O)/C=C/c1ccccc1 = > 84.7 µM
Cc1[nH]n(-c2nc3c(c(=O)[nH]2)CCC3)c(=O)c1CCO = > 100 µM
CC(=O)n1nc(-c2nc3ccccc3nc2Cl)cc1Cl = > 100 µM
C=CC[Se]C(=O)Cc1c(C)n(C(=O)c2ccc(Cl)cc2)c2ccc(OC)cc12 = 5.7 µM
CN(C)c1ccc(/C=C2\N=C(N/N=C/c3ccccc3)NC2=O)cc1 = > 100 µM
O=C(CSCC(=O)N/N=C/c1cccc(OCc2ccccc2)c1)N/N=C/c1cccc(OCc2ccccc2)c1 = > 100 µM
C/C(=N\NC(=O)/C(C#N)=C\c1ccc(N(CCC#N)CCC#N)cc1)c1ccccc1 = > 10 µM
O=C1/C(=C/c2ccc(Cl)cc2)NC(=S)N1CN1CCOCC1 = > 100 µM
Oc1ccc(/C=N/Nc2nc3ccccc3s2)c(O)c1 = > 100 µM

GET /values?readout=TGI&item= COC1C=C(NCC2(CO)CCC2)NC(N)=N1 (stereo not given) > 100 µM
